# tested.target: Follistatin (Homo sapiens)
# assay.procedure: follistatin binders on small-molecule microarrays, primary screen, biochemical, small-molecule microarray, 635/667 nm fluorescence (AID 1132)
# protocol.conditions: FST binding, 635 nm fluorescence, higher = more signal
Hi there, I'd appreciate the recorded composite z-score for every entry that follows.
Numbers only.

Check out these entries, answers already filled in.
compound=CC[C@@H]1C=C(C(=O)O)[C@H](c2ccco2)N1S(=O)(=O)c1ccc(C)cc1 value=1
compound=CCCCc1cn(C[C@H](Cc2ccccc2)NC(=O)N[C@H](CO)CCc2oc(C(C)=O)c(C(=O)OC)c2C(=O)OC)nn1 value=1.18
compound="COc1ccc(C(O)C2C=CC3C(=O)N(C)C(=O)C3N2N2CCCCC2)c2ccccc12 (stereo not drawn)" value=0.829
compound=[N-]=[N+]=NCc1ccccc1[C@H]1OC(c2ccc(OCCCO)cc2)=N[C@@]1(Cc1ccccc1)C(=O)NCc1ccccc1 value=1.13
compound=O=C(c1ccccc1)N1Cc2ccccc2[C@@H]2OC(c3ccc(OCCCO)cc3)=N[C@]2(Cc2ccccc2)C1=O value=1.32

// each compound listed below needs its composite z-score
1. CC(=O)n1cc(C(O)C2C=CC3C(=O)N(C)C(=O)C3N2Nc2ccccc2)c2ccccc21 (stereo not drawn)
2. CC(C)N1C(=O)[C@@]2(Cc3ccccc31)c1ccccc1C(=O)N(C1CCCCC1)[C@H]2c1ccc(CO)cc1
3. COCC(=C=CC[C@@H](O)c1ccccc1OCCO)C[C@@H](O)c1cc(Cl)cc(Cl)c1O

Given back:
[1.12, 1.33, 1.24]
